Values were extracted from PubChem BioAssay (NCI).

Listing: TGI of selected compounds
# Test system: DU-145 prostate
# procedureSummary: NCI tumour cell line growth inhibition, 48 h

compound | unitDescriptor | valueRelationSign | TGI
C1CSCCSCSCCS1 | µM | > | 100
O=C(NCCOCCOCCOCCNC(=O)c1cc2c(o1)C(=O)c1ccccc1C2=O)NC12CC3CC(CC(C3)C1)C2 | µM | = | 1.89
COc1ccccc1/C=C1\S/C(=N/Nc2nc(C)c(C(C)=O)s2)NC1=O | µM | > | 100
CC(NC1=CC(=O)c2cccnc2C1=O)C(O)c1ccccc1 (stereo not given) | µM | = | 3.65
O=S(=O)(O)c1ccc2c(N=Nc3ccc(S(=O)(=O)O)c4ccccc34)c(O)c(S(=O)(=O)O)cc2c1 | µM | > | 100
